target: T1, CD3ε homodimer protein (human, UniProt P07766 23-126, limits assumed, sulfo-tag or biotin label in some ECL assays); test: SPR, CD3ε homodimer on chip;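 further: biacore SPR with antibody variants flowed as analyte over amine-coupled CD3ε homodimer on a CM chip, bound amount of each single-residue H chain variant over that of parent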
T1 construct: also called human CD3ε homodimer protein; CD3 (CD3ε)
T1 sequence (P07766 23-126 limits assumed): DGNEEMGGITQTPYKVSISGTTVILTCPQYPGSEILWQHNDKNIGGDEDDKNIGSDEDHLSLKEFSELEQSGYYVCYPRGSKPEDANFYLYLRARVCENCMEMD
Hi there, I'd appreciate the recorded ratio of amounts bound vs CE115HA000 for every entry that follows.
// no unit string in output, number only

Query: ratio of amounts bound vs CE115HA000; subject: CE115HA000 K64D (antibody, name in Kabat numbering, V domains shown) VH: QVQLVESGGGVVQPGRSLRLSCAASGFTFSNAWMHWVRQAPGKGLEWVAQIKAKSNNYATYYAESVDGRFTISRDDSKNSLYLQMNSLKTEDTAVYYCRYVHYGAYYGVDAWGQGTTVTVSS VL: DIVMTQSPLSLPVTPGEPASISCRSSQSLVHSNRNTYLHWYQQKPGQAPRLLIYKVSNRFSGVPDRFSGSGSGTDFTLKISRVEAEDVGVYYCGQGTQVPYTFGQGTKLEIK
0.72

// query: CE115HA000 Y59D (antibody, name in Kabat numbering, V domains shown) VH: QVQLVESGGGVVQPGRSLRLSCAASGFTFSNAWMHWVRQAPGKGLEWVAQIKAKSNNYATYDAESVKGRFTISRDDSKNSLYLQMNSLKTEDTAVYYCRYVHYGAYYGVDAWGQGTTVTVSS VL: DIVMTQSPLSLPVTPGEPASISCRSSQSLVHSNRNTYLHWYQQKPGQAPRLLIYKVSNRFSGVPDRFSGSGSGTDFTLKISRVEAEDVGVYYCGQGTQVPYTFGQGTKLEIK
0.7

How about this binder: CE115HA000 H35V (antibody, name in Kabat numbering, V domains shown) VH: QVQLVESGGGVVQPGRSLRLSCAASGFTFSNAWMVWVRQAPGKGLEWVAQIKAKSNNYATYYAESVKGRFTISRDDSKNSLYLQMNSLKTEDTAVYYCRYVHYGAYYGVDAWGQGTTVTVSS VL: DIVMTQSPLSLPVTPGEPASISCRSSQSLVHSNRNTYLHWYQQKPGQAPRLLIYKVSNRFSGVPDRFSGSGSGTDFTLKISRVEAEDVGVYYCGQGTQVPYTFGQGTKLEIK
0.22
